- Target system: JAK2 (Homo sapiens (Human))
- Protocol: Enzyme assay (Assay Example^a 1), JAK2
- Assay type: biochemical
- Experimental conditions: ATP 100 μM; Table^a 154
One threshold, 0.08 µM, splits the recorded IC50 values: lower ones are true, equal or higher ones are false.

{"columns": ["Compound", "Answer label"],
 "data": [
  ["FCCNC[C@H]1CC[C@H](c2nnn3cnc4[nH]ccc4c23)CC1 [compound 107]", "true"],
  ["c1cc2c(ncn3nnc(C4CCC4)c23)[nH]1 [compound 67]", "false"],
  ["O=C(OCc1ccccc1)N1CCCC(c2nnn3cnc4[nH]ccc4c23)C1 (racemic) [compound 14]", "false"],
  ["Fc1ccc(CN2CCC(c3nnn4cnc5[nH]ccc5c34)CC2)nc1 [compound 162]", "false"],
  ["OC(CN[C@H]1CC[C@H](c2nnn3cnc4[nH]ccc4c23)CC1)(c1ccccc1)C(F)(F)F (mixture of isomers) [196b]", "true"],
  ["O=S(=O)(c1ccc(NC[C@H]2CC[C@H](c3nnn4cnc5[nH]ccc5c34)CC2)cc1)C(F)(F)F [compound 173]", "false"],
  ["O=C(NCCc1ccc(F)cc1)[C@H]1CC[C@H](c2nnn3cnc4[nH]ccc4c23)CC1 [compound 208]", "true"]
]}

Shifting focus to the compound that follows.
For c1cc2c(ncn3nnc([C@H]4CC[C@H](NN5CCOCC5)CC4)c23)[nH]1 [139b] , is the recorded IC50 below the cut-off of 0.08 µM? true
